Cited source for all entries: patent US10125098B2

targetOrSystem: NaV1.5 (Homo sapiens, UniProt Q14524)
Construct: permanently transfected with an expression vector containing the full-length cDNA coding for the desired human sodium channel α-subunit; expressed in transfected cells; host or cells: HEK-293
Sequence (Q14524 whole entry): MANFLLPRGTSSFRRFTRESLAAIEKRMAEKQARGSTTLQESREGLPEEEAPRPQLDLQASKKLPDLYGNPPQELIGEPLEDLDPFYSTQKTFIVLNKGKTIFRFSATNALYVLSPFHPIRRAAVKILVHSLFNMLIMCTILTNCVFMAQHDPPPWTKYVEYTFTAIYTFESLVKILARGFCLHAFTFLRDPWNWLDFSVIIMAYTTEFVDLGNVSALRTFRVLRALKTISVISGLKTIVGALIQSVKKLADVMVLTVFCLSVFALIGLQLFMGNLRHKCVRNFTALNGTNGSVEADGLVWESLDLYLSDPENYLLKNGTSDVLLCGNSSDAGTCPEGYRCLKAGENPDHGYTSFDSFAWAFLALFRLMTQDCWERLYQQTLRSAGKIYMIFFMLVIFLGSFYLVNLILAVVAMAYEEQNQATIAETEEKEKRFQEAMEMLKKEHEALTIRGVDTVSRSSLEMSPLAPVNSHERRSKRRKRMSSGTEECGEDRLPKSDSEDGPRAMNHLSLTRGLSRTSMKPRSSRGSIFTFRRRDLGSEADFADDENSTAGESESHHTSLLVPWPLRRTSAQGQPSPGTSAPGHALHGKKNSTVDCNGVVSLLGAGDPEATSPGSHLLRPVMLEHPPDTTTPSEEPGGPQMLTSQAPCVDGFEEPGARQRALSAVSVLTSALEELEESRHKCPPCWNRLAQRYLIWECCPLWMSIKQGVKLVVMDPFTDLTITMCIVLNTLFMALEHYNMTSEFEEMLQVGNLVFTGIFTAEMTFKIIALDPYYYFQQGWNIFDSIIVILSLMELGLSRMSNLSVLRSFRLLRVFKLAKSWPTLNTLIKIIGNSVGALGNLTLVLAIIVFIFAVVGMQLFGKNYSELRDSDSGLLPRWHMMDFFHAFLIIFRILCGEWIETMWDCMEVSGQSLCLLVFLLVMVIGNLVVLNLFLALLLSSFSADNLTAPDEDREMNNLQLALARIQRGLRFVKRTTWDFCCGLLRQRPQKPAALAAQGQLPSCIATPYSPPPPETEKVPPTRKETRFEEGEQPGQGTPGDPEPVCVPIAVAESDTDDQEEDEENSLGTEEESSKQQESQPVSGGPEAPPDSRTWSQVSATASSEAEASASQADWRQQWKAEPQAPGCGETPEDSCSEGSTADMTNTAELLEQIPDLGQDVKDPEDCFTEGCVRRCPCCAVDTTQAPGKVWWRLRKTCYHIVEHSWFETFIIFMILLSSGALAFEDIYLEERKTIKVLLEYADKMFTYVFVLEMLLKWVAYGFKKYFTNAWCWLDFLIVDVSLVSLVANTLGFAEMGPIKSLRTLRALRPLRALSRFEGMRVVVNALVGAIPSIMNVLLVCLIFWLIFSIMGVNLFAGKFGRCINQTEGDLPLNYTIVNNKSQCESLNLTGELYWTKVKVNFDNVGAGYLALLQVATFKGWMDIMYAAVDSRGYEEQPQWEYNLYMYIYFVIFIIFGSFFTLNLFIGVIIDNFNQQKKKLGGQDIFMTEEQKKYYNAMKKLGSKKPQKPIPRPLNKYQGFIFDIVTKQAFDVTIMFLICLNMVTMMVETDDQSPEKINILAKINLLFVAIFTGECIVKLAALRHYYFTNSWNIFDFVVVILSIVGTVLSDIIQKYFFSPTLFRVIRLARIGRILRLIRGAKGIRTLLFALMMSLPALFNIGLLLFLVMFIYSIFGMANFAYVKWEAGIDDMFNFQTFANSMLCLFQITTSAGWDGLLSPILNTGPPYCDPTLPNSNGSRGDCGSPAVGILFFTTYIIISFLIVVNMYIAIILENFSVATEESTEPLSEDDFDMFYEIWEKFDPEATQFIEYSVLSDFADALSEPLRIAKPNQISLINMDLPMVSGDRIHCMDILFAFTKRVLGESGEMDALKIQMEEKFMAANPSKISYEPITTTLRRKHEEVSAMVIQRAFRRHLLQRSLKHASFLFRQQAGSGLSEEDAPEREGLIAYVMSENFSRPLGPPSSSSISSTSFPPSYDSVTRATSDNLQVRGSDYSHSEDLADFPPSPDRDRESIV
experimentNotes: Patch voltage clamp electrophysiology assay (EP), NaV1.5
Assay type: cell-based
conditionSummary: HEK-293 cells stably expressing NaV1.5 with β1 subunit; whole-cell patch clamp, membrane potential −60 mV (inactivated state); read-out: Nav1.5
Please note: IC50 exactly at 20 µM is Not fulfilled. Only values below 20 µM get Fulfilled.

# compound, groupLabel
rows = [
    ("O=C(O)[C@@H]1COC(=O)N1C(=O)c1cc(C2CC2)c(OCC23CC4CC(CC(C4)C2)C3)cc1F [Example 133]", "Fulfilled"),
    ("CC1(C)CCC(COc2cc(F)c(C(=O)N3CCC[C@H]3C(=O)O)cc2C2CC2)CC1 [Example 68]", "Fulfilled"),
    ("CC1O[C@H](C)[C@@H](C(=O)O)N1C(=O)c1cc(C2CC2)c(OCC23CC4CC(CC(C4)C2)C3)cc1F (stereo partly drawn) [Example 166]", "Fulfilled"),
    ("CC1[C@H](O)CN(C(=O)c2cc(C3CC3)c(OCC3(F)CCN([C@@H](C)c4cc(Cl)cc(Cl)c4)CC3)cc2F)[C@@H]1C(=O)O (stereo partly drawn) [Example 208]", "Fulfilled"),
    ("O=C(O)[C@@H]1C[C@@H](F)CN1C(=O)c1cc(C2CC2)c(OCC2CCN([C@@H](c3cc(Cl)cc(Cl)c3)C(F)(F)F)CC2)cc1F (single isomer, unassigned) [Example 140b]", "Fulfilled"),
    ("O=C(O)[C@@H]1C[C@@H](F)CN1C(=O)c1cc(C2CC2)c(OCC2CCN(Cc3cc(Cl)cc(OC(F)(F)F)c3)CC2)cc1F [Example 105]", "Not fulfilled"),
]
